# testDescription: Therapeutic index, ratio of IC50 for antiparasitic activity against Toxoplasma gondii to IC50 for antimalarial activity against blood stage Plasmodium falciparum Dd2
# Assay type: toxicity
measurementName: Ratio IC50

A selection of reference data follows.
INSERT INTO assay_data (smilesstructure, result) VALUES
  ('CCCCCCCc1c(C)nc2cc(OC)ccc2c1O', '> 68'),
  ('CCCCCCCCCCCc1c(C)[nH]c2cc(F)cc(F)c2c1=O', '> 83'),
  ('Cc1[nH]c2cc(F)cc(F)c2c(=O)c1-c1ccc(Oc2ccc(OC(F)(F)F)cc2)cc1', 3);

Turning now to a further record.
Prompt: I'd like to know its Ratio IC50. The compound in question is "CCCCCCCc1c(C)[nH]c2cc(F)cc(F)c2c1=O"
Completion: > 83

----------
Recorded measurements of IC50, one per entry
# Tested on: Toxoplasma gondii
# testDescription: Antiparasitic activity against Toxoplasma gondii tachyzoites
# Assay type: functional, organism-based
# experimentalParameters: Toxoplasma gondii; read-out: IC50
State the answer as a number, implicitly in µM.

Worked examples, 2 compounds total:
INSERT INTO results (smilesstructure, measurementname, quantitativereadout) VALUES
  ('Cc1cc(-n2c(=O)[nH]c(=O)n(C)c2=O)ccc1Oc1ccc(SC(F)(F)F)cc1', 'IC50', 0.94),
  ('Nc1ncnc2c1ncn2Cc1c(F)cccc1Cl', 'IC50', 7);

Prompt: Param readout= IC50; system= Toxoplasma gondii; entry= "OC(Cn1cncn1)(Cn1cncn1)c1ccc(F)cc1F" ; returns value.
Completion: 3

Where do these numbers come from? They come from ChEMBL document CHEMBL5230160.
